System: ERβ (Homo sapiens)
Experiment Summary: ERβ luciferase reporter (pERE2TATA-LUC) transactivation assay in transfected HEK293 cells
Type: cell-based
Parameters: expressed in transfected cells; host or cells: HEK293
Test Parameters: HEK293, 24 h, read-out: ERβ receptor activation relative to 10 nM E2 corresponding 100, Table 1, sample concentration 10 μM, mean of at least three independent transfections, SEM typically <15%
Classification by Emax at 10 µM | ranges: A (below 2%), B (2% to below 8%), C (8% or more)

These solved cases illustrate the format of a correct answer.
• COC(CCc1ccccc1)CC(=O)Cc1ccccc1 (stereo not drawn) [Compound 44ab, 4-Methoxy-1,6-diphenyl-hexan-2-one] = A
• O=C(CCCc1ccccc1)CC(O)Cc1ccc(O)cc1 (stereo not drawn) [Compound 39ab] = B
• COC(CC(=O)CCc1ccccc1)Cc1ccccc1 (stereo not drawn) [Compound 46ab, 5-Methoxy-1,6-diphenyl-hexan-3-one] = A

For the record O=C(CCCc1ccc(O)cc1)CC(O)c1ccccc1 (single isomer, unassigned) [Compound 34a] , report the class its Emax at 10 µM corresponds to.
C

====

System: UniProt:Q92731
Experiment Summary: ERβ luciferase reporter (pERE2TATA-LUC) transactivation assay in transfected HEK293 cells
Assay type: cell-based
Design: expressed in transfected cells; host or cells: HEK293
Test Parameters: Table 2, previously published compounds, test compound 10 μM, 24 hours
Form field: ERβ in vitro activity (receptor activation relative to 10 nM E2) (one value per entry).
Give your result in % as a bare value.

Solved entries:
• O=C(CCCc1ccccc1)CC(O)c1ccccc1 (single isomer, unassigned) [Compound 59a, 1-Hydroxy-1,6-diphenyl-hexan-3-one] = 147.3
• O=C(CC(O)CCc1ccccc1)c1ccccc1 (single isomer, unassigned) [Compound 54a, 3-Hydroxy-1,5-diphenyl-pentan-1-one] = 1.1
• O=C(CCCc1ccccc1)CC(O)c1ccccc1 (single isomer, unassigned) [Compound 59b, 1-Hydroxy-1,6-diphenyl-hexan-3-one] = 28.2
• O=C(CCc1ccccc1)CC(O)c1ccccc1 (single isomer, unassigned) [Compound 56b, 1-Hydroxy-1,5-diphenyl-pentan-3-one] = 2.8
• O=C(CCc1ccccc1)CC(O)c1ccccc1 (single isomer, unassigned) [Compound 56a, 1-Hydroxy-1,5-diphenyl-pentan-3-one] = 20.5

// next entry
So what does the record say about ERβ in vitro activity (receptor activation relative to 10 nM E2) for O=C(CC(O)CCc1ccccc1)c1ccccc1 (single isomer, unassigned) [Compound 54b, 3-Hydroxy-1,5-diphenyl-pentan-1-one] ?
7.3

====

Form field: ERβ receptor activation relative to 10 nM E2 corresponding 100 (one value per entry).
System: ERβ (Homo sapiens, UniProt Q92731)
Sequence (Q92731 whole entry): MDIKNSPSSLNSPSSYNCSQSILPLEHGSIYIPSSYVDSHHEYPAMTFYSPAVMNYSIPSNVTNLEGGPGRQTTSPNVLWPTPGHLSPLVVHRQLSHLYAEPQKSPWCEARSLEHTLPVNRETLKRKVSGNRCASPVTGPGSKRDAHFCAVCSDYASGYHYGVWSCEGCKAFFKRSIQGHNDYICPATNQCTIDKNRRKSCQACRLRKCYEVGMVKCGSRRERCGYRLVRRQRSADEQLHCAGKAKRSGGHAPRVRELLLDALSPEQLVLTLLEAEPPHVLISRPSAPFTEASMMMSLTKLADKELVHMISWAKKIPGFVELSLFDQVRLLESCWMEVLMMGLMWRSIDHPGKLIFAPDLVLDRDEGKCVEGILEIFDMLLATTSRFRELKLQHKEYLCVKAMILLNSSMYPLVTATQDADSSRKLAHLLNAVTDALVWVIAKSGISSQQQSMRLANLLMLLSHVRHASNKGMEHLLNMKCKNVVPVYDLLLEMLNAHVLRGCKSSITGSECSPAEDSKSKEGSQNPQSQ
Experiment Summary: ERβ luciferase reporter (pERE2TATA-LUC) transactivation assay in transfected HEK293 cells
Assay type: cell-based
Set-up: expressed in transfected cells; host or cells: HEK293
Test Parameters: Table 1, sample concentration 10 μM, 24 hours, mean of at least three independent transfections, SEM typically <15%
Give your result in % as a bare value.

* O=C(CCCc1ccc(O)cc1)CC(O)c1ccccc1 (single isomer, unassigned) [Compound 34b] | 155.3
* O=C(CCCc1ccc(O)cc1)CC(O)c1cccc(O)c1 (single isomer, unassigned) [Compound 35a] | 107.8

// next entry
So what does the record say about ERβ receptor activation relative to 10 nM E2 corresponding 100 for O=C(CCCc1ccc(O)cc1)CC(O)c1cccc(O)c1 (single isomer, unassigned) [Compound 35b] ?
43.8
